src = patent US20250205178A1

Target: SARS-CoV-2 NSP14 N7-MTase (Severe acute respiratory syndrome coronavirus 2)
Measurement Name: IC50 (µM)
Respond with the bare value in µM.

// recorded IC50 for CC(=O)c1cc(O)c2ccccc2c1O [NSC 111552] : 2.2

Could you now look at the following compound, please?
// recorded IC50 for COCCn1c2nc(=O)n(-c3ccccc3)c(=O)c-2nc2ccccc21 [NSC 288387] : 2.2

====

// endpoint pIC50 / system ZIKV NS5 MTase (Zika virus, UniProt A0A024B7W1)
Keep in mind that pIC50 stands for -log10 of concentration in molar terms.

// pIC50 (ZIKV NS5 MTase (Zika virus, UniProt A0A024B7W1)) for COCCn1c2nc(=O)n(-c3ccccc3)c(=O)c-2nc2ccccc21 = 5.31

Could you now look at the following molecule, please?
// pIC50 (ZIKV NS5 MTase (Zika virus, UniProt A0A024B7W1)) for CC(=O)c1cc(O)c2ccccc2c1O = 5.14
